IC50 (pSTAT3) listing for selected binders.
- experimental.system: T1, human IL-23R endogenously expressed on DB cells (CRL-2289) (human, UniProt Q5VWK5 24-629)
- T1 sequence (looked up): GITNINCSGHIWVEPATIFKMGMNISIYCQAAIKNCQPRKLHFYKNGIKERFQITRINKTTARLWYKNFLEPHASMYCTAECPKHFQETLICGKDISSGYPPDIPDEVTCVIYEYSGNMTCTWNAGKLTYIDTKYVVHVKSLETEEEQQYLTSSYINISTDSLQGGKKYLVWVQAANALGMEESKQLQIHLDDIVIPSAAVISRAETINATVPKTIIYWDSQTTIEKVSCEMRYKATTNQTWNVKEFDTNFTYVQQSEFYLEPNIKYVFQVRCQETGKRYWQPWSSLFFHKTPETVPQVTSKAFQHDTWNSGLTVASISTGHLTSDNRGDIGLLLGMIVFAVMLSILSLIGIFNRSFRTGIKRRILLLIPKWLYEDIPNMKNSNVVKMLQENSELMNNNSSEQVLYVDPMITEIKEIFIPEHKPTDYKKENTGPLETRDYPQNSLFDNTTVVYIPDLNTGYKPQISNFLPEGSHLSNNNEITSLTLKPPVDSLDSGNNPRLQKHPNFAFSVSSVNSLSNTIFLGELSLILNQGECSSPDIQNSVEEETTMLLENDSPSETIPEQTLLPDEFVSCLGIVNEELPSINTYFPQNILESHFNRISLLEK
- test.protocol: cell-based or functional assay
*1 amine or outer side, *2 acyl side, *3 side chain or, on linkers, in order; H or OH if unused. Bridges are numbered along the chain shown (N, C = ends). [ ]: non-standard residue; d: D form. 4‑(2-Aminoethyl)benzoyl = O=C(c1ccc(CCN[*:1])cc1)[*:2]; 2Nal = N[C@@H](Cc1ccc2ccccc2c1)C(=O)O; AEF = NCCOc1ccc(C[C@H](N)C(=O)O)cc1; αMeL = CC(C)C[C@](C)(N)C(=O)O; CH2COCH2 = O=C(C[*:1])C[*:2]; 3Amb = NCc1cccc(C(=O)O)c1

{"binder": "Ac-DETCWQCW[2Nal][αMeL]KR-NH2 (lactam 2-11; linker 4-7 via CH2COCH2; SMILES CC(=O)N[C@@H](CC(=O)O)C(=O)N[C@H]1CCC(=O)NCCCC[C@@H](C(=O)N[C@@H](CCCNC(=N)N)C(N)=O)NC(=O)[C@](C)(CC(C)C)NC(=O)[C@H](Cc2ccc3ccccc3c2)NC(=O)[C@H](Cc2c[nH]c3ccccc23)NC(=O)[C@@H]2CSCC(=O)CSC[C@H](NC(=O)[C@H]([C@@H](C)O)NC1=O)C(=O)N[C@@H](Cc1c[nH]c3ccccc13)C(=O)N[C@@H](CCC(N)=O)C(=O)N2) [Compound 57]", "reading.unit": "nM", "IC50 (pSTAT3)": 167}
{"binder": "[4‑(2-Aminoethyl)benzoyl]SCWQC[AEF][2Nal][αMeL]ER-NH2 (lactam N-10; linker 3-6 via CH2COCH2; SMILES CC(C)C[C@]1(C)NC(=O)[C@H](Cc2ccc3ccccc3c2)NC(=O)[C@H](Cc2ccc(OCCN)cc2)NC(=O)[C@@H]2CSCC(=O)CSC[C@H](NC(=O)[C@H](CO)NC(=O)c3ccc(cc3)CCNC(=O)CC[C@@H](C(=O)N[C@@H](CCCNC(=N)N)C(N)=O)NC1=O)C(=O)N[C@@H](Cc1c[nH]c3ccccc13)C(=O)N[C@@H](CCC(N)=O)C(=O)N2) [Compound 50]", "reading.unit": "nM", "IC50 (pSTAT3)": 51.1}
{"binder": "[3Amb]SCWQC[AEF][2Nal][αMeL]ER-NH2 (lactam N-10; linker 3-6 via CH2COCH2; SMILES CC(C)C[C@]1(C)NC(=O)[C@H](Cc2ccc3ccccc3c2)NC(=O)[C@H](Cc2ccc(OCCN)cc2)NC(=O)[C@@H]2CSCC(=O)CSC[C@H](NC(=O)[C@H](CO)NC(=O)c3cccc(c3)CNC(=O)CC[C@@H](C(=O)N[C@@H](CCCNC(=N)N)C(N)=O)NC1=O)C(=O)N[C@@H](Cc1c[nH]c3ccccc13)C(=O)N[C@@H](CCC(N)=O)C(=O)N2) [Compound 38]", "reading.unit": "nM", "IC50 (pSTAT3)": 19.3}
